Data provenance is paper PMC7659708.

molecular target: T1, biotin-Tba-1 437-449 (C. elegans); assay: SPR; steady-state binding assay, Biacore-T200; biotinylated peptides immobilized on a streptavidin (SA) sensor chip at 100-300 response units; A1aY1 titrated from 0.031 to 200 µM; 1x HBS-P+ (10 mM Hepes, 150 mM NaCl, 0.05% surfactant P20), 30 µl/min; 1:1 binding considered, one site total fit; settings: both partners purified
T1 construct: C-terminal tail of C. elegans alpha-tubulin Tba-1, amino acids 437-449; source: synthetic peptide (LifeTein)
T1 peptide: Biotin-SNEGGNEEEGEEY
Where no end group is shown, it is not given here. The star is where a group is joined. Biotin = O=C1N[C@H]2[C@H](CS[C@H]2CCCCC(=O)*)N1
attribute_measured: pKd
# pKd is unitless: minus log10 of the molar concentration; print number only

Input line: Tell me the measured pKd of A1aY1 binder (designed binder, A1aY1, an SSO7D mutant selected from a combinatorial yeast display library; (His6, thrombin site, A1aY1); Protein used in the SPR steady-state titrations; The results say 'without any tags'; the methods describe the stored protein as 9.3 kD, which is the size with His6 and thrombin site, and tell of thrombin cleavage only for the NMR sample; also called tyrosination sensor; source: E. coli …) MATVKFKYKGEEKQVDISKILSVGRYGKLIHFLYDLGGGKAGMGMVSEKDAPKELLQMLEKQKK , please.
Output line: 6.00
